assayed.target: AChE (Homo sapiens)
Construct: purchased Sigma-Aldrich
Sequence (P22303 32-614): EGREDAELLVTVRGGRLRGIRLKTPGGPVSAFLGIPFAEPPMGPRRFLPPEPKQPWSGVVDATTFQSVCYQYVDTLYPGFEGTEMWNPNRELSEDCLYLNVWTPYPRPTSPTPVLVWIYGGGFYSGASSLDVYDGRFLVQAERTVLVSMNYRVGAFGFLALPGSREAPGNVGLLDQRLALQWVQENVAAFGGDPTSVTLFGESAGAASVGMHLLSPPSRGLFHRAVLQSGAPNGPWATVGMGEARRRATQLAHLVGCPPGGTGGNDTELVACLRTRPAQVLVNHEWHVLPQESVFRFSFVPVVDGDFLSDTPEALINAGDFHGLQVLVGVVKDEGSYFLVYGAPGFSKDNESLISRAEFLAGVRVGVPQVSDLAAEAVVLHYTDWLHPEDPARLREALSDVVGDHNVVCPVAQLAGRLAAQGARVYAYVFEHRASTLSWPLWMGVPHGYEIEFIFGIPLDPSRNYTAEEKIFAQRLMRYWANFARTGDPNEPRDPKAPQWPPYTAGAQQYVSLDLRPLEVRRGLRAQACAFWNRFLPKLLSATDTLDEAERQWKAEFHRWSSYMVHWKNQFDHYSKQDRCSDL
assay.info: biochemical
conditions: mean ± SD of three independent experiments
Recorded IC50 for the following compounds
State just the number; it will be interpreted in nM.

Example cases with answers are listed next.
COC(=O)/C=C/c1ccc(OCCN2CCN(CC(=O)Nc3c4c(nc5ccccc35)CCCC4)CC2)c(OC)c1 [Compound 8a] | 306
COC(=O)/C=C/c1ccc(OCCCCCN2CCN(CC(=O)Nc3c4c(nc5ccccc35)CCCC4)CC2)c(OC)c1 [Compound 8d] | 61.7
COC(=O)/C=C/c1ccc(OCCCCN2CCN(CC(=O)Nc3c4c(nc5ccccc35)CCCC4)CC2)c(OC)c1 [Compound 8c] | 52.7
COC(=O)/C=C/c1ccc(OCCCN2CCN(CC(=O)Nc3c4c(nc5ccccc35)CCCC4)CC2)c(OC)c1 [Compound 8b] | 90.3

--- query ---
# lookup: IC50 of COC(=O)/C=C/c1ccc(OCCCCCCN2CCN(CC(=O)Nc3c4c(nc5ccccc35)CCCC4)CC2)c(OC)c1 [Compound 8e]
184

* * *

assayed.target: Aβ (1–42) (Homo sapiens, UniProt P05067)
Construct: An amount of 250 μg Aβ (1–42) was dissolved; purchased Sigma-Aldrich
Sequence (P05067 672-713): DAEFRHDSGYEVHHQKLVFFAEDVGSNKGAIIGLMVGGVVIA
assay.info: Inhibition of self-induced Aβ (1–42) aggregation, thioflavin T-based fluorometric assay
Assay type: biochemical
conditions: 20 μM compounds, 20 μM Aβ (1–42), 37 °C, 48 h; mean ± SD
observable: inhibition at 20 µM (%)
The reply should be a number in %, with the unit left off.

# input molecule: COc1cc(/C=C/C(=O)CC(=O)/C=C/c2ccc(O)c(OC)c2)ccc1O [curcumin, reference compound] ; wanted: its inhibition at 20 µM
37.3

Okay, and COC(=O)/C=C/c1ccc(OCCN2CCN(CC(=O)Nc3c4c(nc5ccccc35)CCCC4)CC2)c(OC)c1 [Compound 8a] ?
26.1

Try COc1cc(/C=C/C(=O)O)ccc1O [ferulic acid] next.
36.5

Let us now turn to COC(=O)/C=C/c1ccc(OCCCCCN2CCN(CC(=O)Nc3c4c(nc5ccccc35)CCCC4)CC2)c(OC)c1 [Compound 8d]
37.2

Also COC(=O)/C=C/c1ccc(OCCCCN2CCN(CC(=O)Nc3c4c(nc5ccccc35)CCCC4)CC2)c(OC)c1 [Compound 8c] ?
18.5

Now consider COC(=O)/C=C/c1ccc(OCCCCCCN2CCN(CC(=O)Nc3c4c(nc5ccccc35)CCCC4)CC2)c(OC)c1 [Compound 8e] .
35.1

COC(=O)/C=C/c1ccc(OCCCN2CCN(CC(=O)Nc3c4c(nc5ccccc35)CCCC4)CC2)c(OC)c1 [Compound 8b] ?
19.5

* * *

assayed.target: BuChE (Homo sapiens)
Construct: purchased Sigma-Aldrich
Sequence (P06276 29-602): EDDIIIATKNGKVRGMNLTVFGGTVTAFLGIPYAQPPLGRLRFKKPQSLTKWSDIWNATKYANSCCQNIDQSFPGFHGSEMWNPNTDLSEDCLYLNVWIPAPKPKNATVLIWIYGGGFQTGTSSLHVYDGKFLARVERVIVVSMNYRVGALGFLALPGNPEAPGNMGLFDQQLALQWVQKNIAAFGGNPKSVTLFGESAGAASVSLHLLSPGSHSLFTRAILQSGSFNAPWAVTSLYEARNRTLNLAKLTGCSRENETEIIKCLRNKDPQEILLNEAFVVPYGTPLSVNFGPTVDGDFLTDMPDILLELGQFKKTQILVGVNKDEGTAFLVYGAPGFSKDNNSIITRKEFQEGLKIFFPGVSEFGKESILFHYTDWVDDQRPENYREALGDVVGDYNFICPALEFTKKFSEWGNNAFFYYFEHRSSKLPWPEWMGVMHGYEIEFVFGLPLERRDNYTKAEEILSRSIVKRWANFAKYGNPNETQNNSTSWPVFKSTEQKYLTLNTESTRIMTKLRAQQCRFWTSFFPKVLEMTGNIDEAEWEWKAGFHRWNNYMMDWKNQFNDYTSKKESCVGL
assay.info: biochemical
conditions: mean ± SD of three independent experiments
observable: IC50
Please append the unit to your numeric answer.

Some solved entries appear below for comparison.
COC(=O)/C=C/c1ccc(OCCCCN2CCN(CC(=O)Nc3c4c(nc5ccccc35)CCCC4)CC2)c(OC)c1 | 215 nM
COC(=O)/C=C/c1ccc(OCCCCCN2CCN(CC(=O)Nc3c4c(nc5ccccc35)CCCC4)CC2)c(OC)c1 | 107 nM
COC(=O)/C=C/c1ccc(OCCCN2CCN(CC(=O)Nc3c4c(nc5ccccc35)CCCC4)CC2)c(OC)c1 | 120 nM

So what's the measured IC50 for this one? COC(=O)/C=C/c1ccc(OCCCCCCN2CCN(CC(=O)Nc3c4c(nc5ccccc35)CCCC4)CC2)c(OC)c1
196 nM

Next: COC(=O)/C=C/c1ccc(OCCN2CCN(CC(=O)Nc3c4c(nc5ccccc35)CCCC4)CC2)c(OC)c1
203 nM

* * *

Listed here: items and their measured Selectivity Index.
assayed.target: AChE (Homo sapiens)
Construct: purchased Sigma-Aldrich
assay.info: biochemical
conditions: Selectivity index = IC50 (BuChE)/IC50 (AChE)
// return just the number, without any unit appended

Some entries whose results are on file:
COC(=O)/C=C/c1ccc(OCCCCCN2CCN(CC(=O)Nc3c4c(nc5ccccc35)CCCC4)CC2)c(OC)c1 [Compound 8d] | 1.733
COC(=O)/C=C/c1ccc(OCCCCCCN2CCN(CC(=O)Nc3c4c(nc5ccccc35)CCCC4)CC2)c(OC)c1 [Compound 8e] | 1.059
COC(=O)/C=C/c1ccc(OCCN2CCN(CC(=O)Nc3c4c(nc5ccccc35)CCCC4)CC2)c(OC)c1 [Compound 8a] | 0.660
COC(=O)/C=C/c1ccc(OCCCN2CCN(CC(=O)Nc3c4c(nc5ccccc35)CCCC4)CC2)c(OC)c1 [Compound 8b] | 1.326

// returns reported Selectivity Index for input COC(=O)/C=C/c1ccc(OCCCCN2CCN(CC(=O)Nc3c4c(nc5ccccc35)CCCC4)CC2)c(OC)c1 [Compound 8c]
4.087
